Quantity Name: melting point

Consider the worked cases shown below.
Cc1cccc2c(C=C3C(=O)NN=C3C3CC3)cn(C)c12 [Example 290] ... 258 to 260 °C
COc1ccc2c(c1)c(C=C1C(=O)NN=C1C1CC1)cn2C [Example 288] ... 236 to 238 °C
CC(C)C1=NNC(=O)C1=Cc1c[nH]c2ncccc12 [Example 343] ... 300 °C (dec.)

Now consider the entry below.
Answer with the recorded melting point for the molecule listed here: O=C1NN=C(CCc2ccc(C(=O)O)cc2)C1=Cc1cc2ccccc2[nH]1 [Example 320] > 300 °C

====

Quantity Name: melting point

Consider the worked cases shown below.
O=C1NN=C(c2ccncc2)C1=Cc1cn(CCCCO)c2ccccc12 ... 224 to 225 °C
CCOC(=O)c1c(C)[nH]c(C=C2C(=O)NN=C2C2CC2)c1C ... 240 to 242 °C
O=C(CC1=NNC(=O)C1=Cc1ccc[nH]1)Nc1ccc(Cl)cc1 ... 240 to 242 °C
O=C1NN=C(COc2ccc(Cl)cc2)C1=Cc1ccc[nH]1 ... 218 to 222 °C

Answer with the recorded melting point for the compound listed here: "CCOC1=NNC(=O)C1=Cc1cc2ccccc2[nH]1" 265 to 267 °C

Answer with the recorded melting point for the compound listed here: "CCOC1=NNC(=O)C1=Cc1[nH]c(Cl)c(CC(=O)OC)c1C(=O)OC" 225 to 227 °C

Answer with the recorded melting point for the compound listed here: "Cc1[nH]c(C=C2C(=O)NN=C2c2cnccn2)cc1CN(C)C" 193 to 195 °C

Answer with the recorded melting point for the compound listed here: "CCOC(=O)C1=NNC(=O)C1=Cc1c[nH]c2ccccc12" 250 °C (dec.)

Answer with the recorded melting point for the compound listed here: "O=C1NN=C(Nc2ccccc2)C1=Cc1c[nH]c2ccccc12" 265 to 267 °C

====

Listed here: items and their measured melting point.

Answer with the recorded melting point for the compound listed here: "CCc1c(C)[nH]c(C=C2C(=O)NN=C2CCc2ccc(N)cc2)c1C" 183 to 185 °C

Answer with the recorded melting point for the compound listed here: "Cn1cc(C=C2C(=O)NN=C2c2cccnc2)c2ccccc21" 230 to 232 °C

====

Listed here: items and their measured melting point.

Cc1ccc(CCC2=NNC(=O)C2=Cc2ccc[nH]2)cc1 ... 153 to 154 °C

Now consider the entry below.
Answer with the recorded melting point for the compound listed here: "Cc1[nH]c(C=C2C(=O)NN=C2c2cnccn2)c(C)c1CCNC1CC1" 210 to 218 °C

====

Quantity Name: melting point

Consider the worked cases shown below.
O=C1NN=C(CCCc2ccccc2)C1=Cc1ccc[nH]1 ... 169 to 170 °C
Cc1[nH]c(C=C2C(=O)NN=C2c2cnccn2)c(C)c1C(=O)OCCN(C)C ... 223 to 225 °C
Cn1cc(C=C2C(=O)NN=C2Nc2ccc(F)cc2)c2ccccc21 ... 218 to 219 °C
Cc1ccc(NC2=NNC(=O)C2=Cc2c[nH]c3ccccc23)cc1 ... 255 to 257 °C
Cc1[nH]c(C=C2C(=O)NN=C2C2CC2)c(C)c1CN1CCOCC1 ... 175 to 177 °C
CCOC(=O)c1c(C)[nH]c(C=C2C(=O)NN=C2C(C)Cc2ccccc2)c1C (centres unmarked) ... 168 to 170 °C
O=C1NN=C(c2cnccn2)C1=Cc1cc(C(=O)O)c[nH]1 ... 230 to 232 °C
COc1ccc(CC2=NNC(=O)C2=Cc2ccc[nH]2)cc1OC ... 164 to 165 °C
CC(C)OC1=NNC(=O)C1=Cc1cc2ccccc2[nH]1 ... 221 to 223 °C
Cc1[nH]c(C=C2C(=O)NN=C2c2cnccn2)c(C)c1CCCO ... 273 to 275 °C

Answer with the recorded melting point for the molecule listed here: "Cc1cc(C=C2C(=O)NN=C2C2CC2)[nH]c1C" 220 to 222 °C

Answer with the recorded melting point for the molecule listed here: "O=C1NN=C(c2cnccn2)C1=Cc1cc2c([nH]1)CCC=C2Cl" 206 to 209 °C

Answer with the recorded melting point for the molecule listed here: "O=C1NN=C(C2CC2)C1=Cc1cc(Cl)c[nH]1" 220 °C (dec.)

Answer with the recorded melting point for the molecule listed here: "COc1ccc(CC2=NNC(=O)C2=Cc2c[nH]c3ccccc23)cc1" 265 to 270 °C

Answer with the recorded melting point for the molecule listed here: "Cc1ccc(CC2=NNC(=O)C2=Cc2c[nH]c3ncccc23)cc1" > 300 °C

Answer with the recorded melting point for the molecule listed here: "CCOC1=NNC(=O)C1=Cc1[nH]c(C)c(C(=O)O)c1C" 310 to 312 °C

====

Listed here: items and their measured melting point.

CC(C)OC1=NNC(=O)C1=Cc1cccn1C [Example 43] ... 199 to 201 °C
Cc1ccc(CC2=NNC(=O)C2=Cc2c[nH]c3ccccc23)cc1 [Example 219] ... 280 to 282 °C
CCOC(=O)c1c(C)[nH]c(C=C2C(=O)NN=C2c2ccccc2)c1C [Example 145] ... 216 to 217 °C

Answer with the recorded melting point for the molecule listed here: Cc1[nH]c(C=C2C(=O)NN=C2C2CC2)c(C)c1CCO [Example 184] 244 to 246 °C

Answer with the recorded melting point for the molecule listed here: CCN(CC)CCc1c(C)[nH]c(C=C2C(=O)NN=C2c2ccnnc2)c1C [Example 209] 212 to 216 °C

Answer with the recorded melting point for the molecule listed here: Cc1[nH]c(C=C2C(=O)NN=C2c2cnccn2)c(C)c1CCN(C)C [Example 191] 216 °C

Answer with the recorded melting point for the molecule listed here: Cc1[nH]c(C=C2C(=O)NN=C2c2cnccn2)c(C)c1C(=O)O [Example 118] 225 to 228 °C

Answer with the recorded melting point for the molecule listed here: NC(=O)c1ccc(CCC2=NNC(=O)C2=Cc2cc3ccccc3[nH]2)cc1 [Example 310] 263 to 265 °C

Answer with the recorded melting point for the molecule listed here: CCN(CC)CCc1c(C)[nH]c(C=C2C(=O)NN=C2c2ncccn2)c1C [Example 206] 144 to 146 °C

Answer with the recorded melting point for the molecule listed here: O=C1NN=C(c2ccccn2)C1=Cc1c[nH]c2ccccc12 [Example 269] 278 to 280 °C

Answer with the recorded melting point for the molecule listed here: CCc1c(C)[nH]c(C=C2C(=O)NN=C2CCc2ccccc2)c1C [Example 37] 168 to 170 °C

Answer with the recorded melting point for the molecule listed here: O=C1NN=C(Cc2ccc(Cl)cc2)C1=Cc1c[nH]c2ccccc12 [Example 223] 274 to 277 °C

Answer with the recorded melting point for the molecule listed here: O=C1NN=C(C2CCC2)C1=Cc1ccc[nH]1 [Example 57] 150 to 152 °C

Answer with the recorded melting point for the molecule listed here: CCOC1=NNC(=O)C1=Cc1ccc[nH]1 [Example 31] 211 to 213 °C

Answer with the recorded melting point for the molecule listed here: "O=C1NN=C(c2cccnc2)C1=Cc1c[nH]c2ccccc12" 305 to 307 °C

Answer with the recorded melting point for the molecule listed here: CCOC1=NNC(=O)C1=Cc1[nH]c(C)c(C(=O)NCCN(C)C)c1C [Example 155] 158 to 160 °C

Answer with the recorded melting point for the molecule listed here: COc1ccc(OCC2=NNC(=O)C2=Cc2c[nH]c3ccccc23)cc1 [Example 212] 266 to 268 °C

Answer with the recorded melting point for the molecule listed here: CC(C)OC1=NNC(=O)C1=Cc1c[nH]cn1 [Example 366] 259 to 260 °C

Answer with the recorded melting point for the molecule listed here: Cn1cc(C=C2C(=O)NN=C2c2cnccn2)c2ccc(C(=O)O)cc21 [Example 304] > 300 °C

Answer with the recorded melting point for the molecule listed here: Cc1c[nH]c(C=C2C(=O)NN=C2OC(C)C)c1 [Example 41] 215 to 217 °C

Answer with the recorded melting point for the molecule listed here: Cc1ccc(OCC2=NNC(=O)C2=Cc2c[nH]c3ccccc23)cc1 [Example 216] 288 to 291 °C

Answer with the recorded melting point for the molecule listed here: Cc1ccc(CCC2=NNC(=O)C2=Cc2c[nH]c3ccccc23)cc1 [Example 236] 244 to 245 °C

Answer with the recorded melting point for the molecule listed here: CCOC(=O)c1c[nH]c(C=C2C(=O)NN=C2c2cnccn2)c1 [Example 136] 155 to 157 °C

Answer with the recorded melting point for the molecule listed here: CCNCCc1c(C)[nH]c(C=C2C(=O)NN=C2c2cnccn2)c1C [Example 185] 192 to 194 °C

Answer with the recorded melting point for the molecule listed here: CC(C)OC1=NNC(=O)C1=Cc1cc[nH]c1 [Example 369] 252 to 255 °C

====

Quantity Name: melting point

Consider the worked cases shown below.
Cc1ccc(C=C2C(=O)NN=C2C2CC2)[nH]1 ... 170 to 172 °C
CCN(CC)CCCc1c(C)[nH]c(C=C2C(=O)NN=C2c2cnccn2)c1C ... 208.1 °C
Cc1[nH]c(C=C2C(=O)NN=C2c2cnccn2)c(C)c1C(=O)CN(C)C.Cl ... > 300 °C (dec.)
Cc1[nH]c(C=C2C(=O)NN=C2c2cnccn2)c(C)c1CN(C)C.O=C(O)/C=C\C(=O)O ... 206 to 210 °C
CC1CC1C1=NNC(=O)C1=Cc1c[nH]c2ccccc12 (stereo not drawn) ... 294 to 296 °C
O=C1NN=C(C2CC2)C1=Cc1ccc(CN2CCOCC2)[nH]1 ... 184 to 186 °C
O=C1NN=C(C2CC2)C1=Cc1cccn1CCCCO ... 134 to 136 °C
CC(C)OC1=NNC(=O)C1=Cc1ccc[nH]1 ... 172 to 174 °C

Now consider the entry below.
Answer with the recorded melting point for the compound listed here: "CCOC(=O)c1c(C)[nH]c(C=C2C(=O)NN=C2C(F)(F)F)c1C" 252 to 254 °C
